Test system: Staphylococcus sp.
Assay: in vitro antibacterial evaluation, MIC by broth dilution
Type: cell-based
Conditions: strain GC 4548; broth dilution, 18 hours at 35° C.
Numbered stars: 1 amine (or outer) side, 2 acyl side, 3 side chain; on linkers, the order of the positions; unused ones are H or OH. Square brackets hold non-standard residues; d marks the D form. Peptide text beside a SMILES is read from it. ξ: configuration not given here. X1 = N=C1NCC(C(O)C(N[*:1])C(=O)[*:2])N1C1OC(CO)C(O)C(O)C1O; ξEnduracididine(βξ-OH,4'ξ) = N=C1NCC(C(O)C(N)C(=O)O)N1; Tyr(3,5-Br2) = N[CH](Cc1cc(Br)c(O)c(Br)c1)C(=O)O; ξPhe(βξ-Me) = CC(c1ccccc1)C(N)C(=O)O
quantity_measured: MIC Coagulase Negative Staphylococcus (GC 4548)

Task: What value of measured MIC Coagulase Negative Staphylococcus (GC 4548) is listed for N=C1NCC(C(O)C2NC(=O)C(CC3CCC(OC4OC(CO)C(OC5OC6COC7(OC6C(O)C5O)C5CC6CC(C5)CC7C6)C(O)C4O)CC3)NC(=O)C(CC3CCCCC3)NC(=O)CNC(=O)C(CO)NC(=O)C(C(O)C3CNC(=N)N3C3OC(CO)C(O)C(O)C3O)NC2=O)N1 (single isomer, unassigned) ?
Result: >64 µg/mL

Task: // next record CC(c1ccccc1)C1NC(=O)CNC(=O)C(CO)NC(=O)C(C(O)C2CNC(=N)N2C2OC(CO)C(O)C(O)C2O)NC(=O)C(C(O)C2CNC(=N)N2)NC(=O)C(Cc2ccc(OC3OC(CO)C(OC4OC5COC6(CCCCC6)OC5C(O)C4O)C(O)C3O)cc2)NC1=O (stereo not shown)
Result: 1 µg/mL

Task: Okay, and CC(c1ccccc1)C1NC(=O)CNC(=O)C(CO)NC(=O)C(C(O)C2CNC(=N)N2C2OC(CO)C(O)C(O)C2O)NC(=O)C(C(O)C2CNC(=N)N2)NC(=O)C(Cc2cc(Br)c(O)c(Br)c2)NC1=O (stereo not drawn) [Example 3] (cyclo(G[ξPhe(βξ-Me)][Tyr(3,5-Br2)][ξEnduracididine(βξ-OH,4'ξ)][X1]S); configuration not given here) ?
Result: >128 µg/mL

Task: CC(c1ccccc1)C1NC(=O)CNC(=O)C(CO)NC(=O)C(C(O)C2CNC(=N)N2C2OC(CO)C(O)C(O)C2O)NC(=O)C(C(O)C2CNC(=N)N2)NC(=O)C(Cc2ccc(OC3OC(CO)C(OC4OC5COC(c6cccc(Oc7cccc(C(F)(F)F)c7)c6)OC5C(O)C4O)C(O)C3O)cc2)NC1=O (stereo not shown) ?
Result: 16 µg/mL

Task: // query: CC(c1ccccc1)C1NC(=O)CNC(=O)C(CO)NC(=O)C(C(O)C2CN(Cc3ccccc3)C(=NCc3ccccc3)N2C2OC(CO)C(O)C(O)C2O)NC(=O)C(C(O)C2CN(Cc3ccccc3)C(=NCc3ccccc3)N2Cc2ccccc2)NC(=O)C(Cc2ccc(OC3OC(CO)C(OC4OC5COC6(OC5C(O)C4O)C4CC5CC(C4)CC6C5)C(O)C3O)cc2)NC1=O (stereo not shown)
Result: 4 µg/mL

Task: Repeat with CC(c1ccccc1)C1NC(=O)CNC(=O)C(CO)NC(=O)C(C(O)C2CNC(=N)N2C2OC(CO)C(O)C(O)C2O)NC(=O)C(C(O)C2CNC(=N)N2)NC(=O)C(Cc2ccc(OC3OC(CO)C(OC4OC5COC(c6ccc(C(=O)c7ccc(I)cc7)cc6)OC5C(O)C4O)C(O)C3O)cc2)NC1=O (stereo not shown)
Result: 1 µg/mL

Task: Do the same for CC(c1ccc(Cl)cc1)C1NC(=O)CNC(=O)C(CO)NC(=O)C(C(O)C2CNC(=N)N2C2OC(CO)C(O)C(O)C2O)NC(=O)C(C(O)C2CNC(=N)N2)NC(=O)C(Cc2ccc(OC3OC(CO)C(OC4OC5COC(C6CCCCC6)OC5C(O)C4O)C(O)C3O)cc2)NC1=O (stereo not shown) please
Result: 0.25 µg/mL
